Provenance of the data: a melting point compilation (Tetko et al.; mined from patent text by program, amines drawn as free bases though some values may be those of a salt)

Measurement name: melting point

# example entries with known answers
{"Molecule": "CCCCOc1nc(N)c2[nH]c(=O)n(CCCN(CCCN3CCOCC3)Cc3cccc(CC(=O)OC)c3)c2n1", "Endpoint result": "153 °C"}
{"Molecule": "O=C(O)CC(CCc1ccc(O)cc1)CC(=O)O", "Endpoint result": "142 to 144 °C"}
{"Molecule": "CC1COCC(C)N1C(=O)N1Cc2c(-c3noc(C4CC4)n3)ncn2-c2ccc(F)cc21 (stereo not drawn)", "Endpoint result": "143 to 146 °C"}
{"Molecule": "CCN(CC)CCNC(=O)c1cc(Cl)c(N)cc1OCCCN", "Endpoint result": "119 to 121 °C"}

What does the record list as melting point for c1ccc(CCNc2nc3ccccc3c3[nH]c(C4CCCC4)nc23)cc1 ?
95 to 97 °C

====

Catalogue of melting point readings, one per entry.

{"Compound": "CCSC(=O)OCOC(=O)COc1nc(Cl)c(Cl)cc1Cl", "melting point": "70 to 71 °C"}
{"Compound": "O=C(O)C1(C(=O)O)CC2CCC2C1 (centres undefined)", "melting point": "161 to 170 °C"}
{"Compound": "Clc1nc(-c2ccccc2)nc(-c2ccccc2)n1", "melting point": "136 to 138 °C"}

What does the record list as melting point for Nc1cccc(C(=O)Nc2ccccc2)c1 ?
118 to 120 °C

====

Catalogue of melting point readings, one per entry.

# example entries with known answers
{"Structure": "CC(=O)CNc1ccc(/C=C/C(=O)O)cc1", "melting point": "213 to 215 °C"}
{"Structure": "CCC(O)(CC)[C@@H]1C[C@@H]([C@H](CC2CCCCC2)NC(=O)OC(C)(C)C)OC1=O", "melting point": "118 to 120 °C"}
{"Structure": "O=C(O)c1cn(C2CC2)c(-c2ccc3c(c2)OCO3)cc1=O", "melting point": "211 to 212 °C"}
{"Structure": "CC(C)SC[C@@H](C[C@H](O)[C@H](CC1CCCCC1)C(=O)OC(C)(C)C)C(C)C", "melting point": "107 to 108 °C"}
{"Structure": "Cc1oc(C)c2c1C(=O)c1c(O)ccc(O)c1C2=O", "melting point": "255 to 256 °C"}

What does the record list as melting point for O=[N+]([O-])c1ccc(CN2CCC(C(c3ccccc3)c3ccccc3)CC2)cc1 ?
130 to 131 °C

====

Measurement name: melting point

# example entries with known answers
{"Molecule": "N#CCc1cc(O)cc2cc(-c3ccc(O)cc3)oc12", "Endpoint result": "128 to 130 °C"}
{"Molecule": "Cc1cc(N2C=CC(=O)CC2)nn2cnnc12", "Endpoint result": "264 to 266 °C"}
{"Molecule": "CSC1C(=O)Nc2ccc(C3=NNC(=O)SC3)cc21 (stereo not drawn)", "Endpoint result": "201 to 204 °C"}
{"Molecule": "CC(C(=O)O)c1ccc2oc(-c3cccnc3)nc2c1 (stereo not drawn)", "Endpoint result": "197 to 200 °C"}
{"Molecule": "CC(CCCC(C)(C)O)C1CCC2C3CCC4(O)CC(=O)CCC4(C)C3CCC12C (stereo not drawn)", "Endpoint result": "215 to 217 °C"}

Moving on to the next molecule.
What does the record list as melting point for O=C(NCCCCN1CCC(c2ccccc2)CC1)c1ccc2ccccc2c1 ?
143 to 144 °C
